System: MS2 coat protein
experiment_notes: apparent KD of MS2 coat protein; designed switch direction (-1 OFF switch, 1 ON switch): 1; higher = weaker reporter binding
particulars: input ligand: none
Category | rule: reported apparent KD of MS2 coat protein within range, see A (below 40 nM), B (40 nM to below 400 nM), C (400 nM or more)

Which bin, given its apparent KD of MS2 coat protein, does ACAUGAGGGUGAGGAUAUUGGAACUCACCUGACAUGAGGAUCACCCAUGUUCAAUGAGGAUCACCCAAGAAGGCACGUUGUGGA [Same State NG2 S3] (Eterna round: R96, puzzle: Same State NG 2) occupy?
A

Which bin, given its apparent KD of MS2 coat protein, does AGCUAUUAAUCAGGAUAUGGUCACAUGAGGAUCACCCAUGUAUAGAUGAUUGAAUGUGGUCUACACUAGAAGGGAUUGCUAACA [SameState NG2 #58] (Eterna round: R96, puzzle: Same State NG 2) occupy?
B

Which bin, given its apparent KD of MS2 coat protein, does GGUACAUGAGGAUCACCCAUGUCAAAGGCACCGUGCAGACUGGAGGAUAUCACAGCAGAAAGCUGUGAGAAGGCCGUGUAAGCG [Eternabot solution 17] (Eterna round: R96, puzzle: Same State NG 3) occupy?
B

Which bin, given its apparent KD of MS2 coat protein, does GAAUAGUUGAGAGGAUAUGGAUUAUUGUAGGAUCCAGAAGGUUUUAACAUGAGGAUCACCCAUGUAGGACUAUAUAUGUGAAUA [Parity 97 - Jieux - Same State NG 1] (Eterna round: R96, puzzle: Same State NG 1) occupy?
A

Which bin, given its apparent KD of MS2 coat protein, does UGGUACAUGGGAGGAUAUCUCGUAGAGACAUGAGGAUCACCCAUGUAGAUGGCCGGUAACCGGGAAGAGAAGGCCCAUGUACCU [JL SSNG1 3.66] (Eterna round: R96, puzzle: Same State NG 2) occupy?
B

Which bin, given its apparent KD of MS2 coat protein, does UUUCUUCUCGUAGGAUAUGUAGGAUAUGCCUACAUGAGGAUCACCCAUGUUCGCAUGGCAGAAGGACAGAAGGACGAUCACCCU [pwkr ssNG2 2FMN + 1F5.9] (Eterna round: R96, puzzle: Same State NG 2) occupy?
C

Which bin, given its apparent KD of MS2 coat protein, does AUGCCAAAUGGAGGAUAUGGAGCCUUAUUGGCUCCAGAAGGUCAAACAUGAGGAUCACCCAUGUGGCAGUGGUCUAAUGACCAC [Eli NG1ss - 45] (Eterna round: R96, puzzle: Same State NG 1) occupy?
B

Which bin, given its apparent KD of MS2 coat protein, does UAGUACAUGCUUUUUGUCUGUCUUAGAUAACAUGAGGAUCACCCAUGUAAGGUGAAAGUUAUAUAGUUUAUGAAUAU [JR_SHM208A_Sub058] (Eterna round: R96, puzzle: Sensor for hsa-mir-208a) occupy?
B

Which bin, given its apparent KD of MS2 coat protein, does AAGAAAUCCGCAGGAUAUCCUAAGCCGGGCUUAGGAGAAGGGUGGCCACAUGAGGAUCACCCAUGUAAAGGCUGAAUCACAGCC [Disois] (Eterna round: R96, puzzle: Same State NG 1) occupy?
C

Which bin, given its apparent KD of MS2 coat protein, does GCGGACCUGACAUGAGGAUCACCCAUGUUGCGGAGACGCAAUGAGGAUAUCGAUGGGUUUCCCGUCGAGAAGGCAUAAAUCCGC [JL SSNG3 3.93 mod 3] (Eterna round: R96, puzzle: Same State NG 3) occupy?
A

Which bin, given its apparent KD of MS2 coat protein, does GCUCGAUGAGCGUUCUACAUGAGGAUCACCCAUGUUCGUGGGCAGGAUAUUUACAUGCAGAGUGUAGAGAAGGGCCCAUCGAGC [SameState NG3 #66] (Eterna round: R96, puzzle: Same State NG 3) occupy?
C

----------
Test system: K4 kissing-loop RNA reporter
experiment_notes: apparent KD of K4 kissing-loop reporter; higher = weaker reporter binding
particulars: Eterna round: R107; input ligand: theophylline 20 uM
Provide the recorded apparent KD of K4 kissing-loop reporter for the entries that follow.
Entry rule: numbers only, all in nM.

Output apparent KD of K4 kissing-loop reporter of UCCUGCAAUCUGCCACGAAAGUGGGUUGAUACCAGAGUCGAAAGACUCCCUUGGCAGCGAGUGAUGUUCGUUGCAGGUAAAUAAA [MatMod 8 - Jieux - Exclusion - Theophylline A]
180

Output apparent KD of K4 kissing-loop reporter of AGAGUUAUGCGAGGAUAUGCAGUUAGUACUCAAAGAGUACUAACGCAGAGUGAUGUUCUGUGAAAUGCAGAAGGUGCAUAACUCA [Omei KL FMN B SS B v5]
316

Output apparent KD of K4 kissing-loop reporter of UACUAUAGUGAUGUUAUAGAUAAAACAGAUACCAGUGUAACAUAACACCCUUGGCAGCUGAUAAGGGAAAGUAUAAAUGUGUAUU [AstrosSSTHe-A#2newdesignED]
208

Output apparent KD of K4 kissing-loop reporter of GCGGCCCAGCCGGAUACCAGUGACCCGCUGGGAACCGCGGGCCCAGAGUGAUGUUCGGGACACCCUUGGCAGCCGCCUGGGACGC [#2 Same State - Theophylline B Attempt #17 (HarryS)]
334

Output apparent KD of K4 kissing-loop reporter of UGUCAUGGAAACAUGAACGUUAAAAUAAAUCGAGGACCGGUACGGCCGCCACUCGUAUAGCGGUCAGUGAUGUUGACUGUAGUAC [KL-SSTryp-A form2 sub11 #dotplot2>1]
109

Output apparent KD of K4 kissing-loop reporter of UGUUAUGUAUCAGGAUAUUAGUGAUGUUUGUUUAUGUUAGUGAUGUUGAUAUUUGUUUUAUGUAUUUAAGAAGGGAUUGAGAUGU [dcdmullin]
27.7

Output apparent KD of K4 kissing-loop reporter of UGUCAUUGGUCGGCCGCCACUAUAUAAAAGAGUGAUGUUCUAAAGACGGAUCGAAAGAUCUGUCAUAGGACCGGGACCGAUGACU [TrypBS 20 #SwitchBubble #StaticStem]
294

----------
System: K4 kissing-loop RNA reporter;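 note: bound reporter read as fluorescence of individual clusters on recovered sequencing chips by microscopy, with normalized cluster intensities fitted with a binding model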
experiment_notes: apparent KD of K4 kissing-loop reporter; higher = weaker reporter binding
particulars: Eterna round: R107; input ligand: tryptophan 2.4 mM
The threshold is inclusive: apparent KD of K4 kissing-loop reporter of exactly 300 nM counts as condition met; values below receive condition not met.

Is apparent KD of K4 kissing-loop reporter for CAUAUAUAUAGAGGAUAUCGAGUAGAGUGAUGUUCUGCCUGGGUUGGCUCGCAAGGGCCUUCCCAGCGAGAAGGCUAUAUAUAUG [harrys-mod#1ED5.33] at or above 300 nM?
condition met

Is apparent KD of K4 kissing-loop reporter for GCAGUGAUGUUGCGGAUGUACAGUGGCGUGCGAGGACCGGUACGGCCGCCACUCGUACAGAGCCAGCUAAUACAUCGAUAGGUGA [whbob_SS_Tryp_A_m6] at or above 300 nM?
condition met

Is apparent KD of K4 kissing-loop reporter for CAUAAAAGGUGGAAGACGAAUCGGUGUCGCCGAGGACCGGUACGGCCGCCACUCGGUCAUCAAAUCCUUCCCGAGUGAUGUUCGA [theeternabot_sameState_KL_Trp_A_5] at or above 300 nM?
condition not met

Is apparent KD of K4 kissing-loop reporter for AAUUCAGUGAUGUUGGAAGGCAGGAGGGAUACCAGCGGAAAUAAACGCCCUUGGCAGCCCAAAUAUCCCAAAUAGAUAAUAAUUU [Same State - Theophylline A (Freestyle 1)] at or above 300 nM?
condition met

Is apparent KD of K4 kissing-loop reporter for GAGGAUUGAACGGCCGCCACUGCGCGCAGCUGCAAUCGAGUGAUGUUCCAUCAGUUGUCCAGUUCCAGGACCGGGUUCCGAUGCC [theeternabot_exclusion_KL_Trp_B_12] at or above 300 nM?
condition met

Is apparent KD of K4 kissing-loop reporter for AUUCUGUUUUUGAUGUUUAUUGUAUAAUGGCAGGAUAUCGUAGAAGCGAGAAGGGCUUUUAUGCGUUAUGAGUGAUGUUUGUAGG [eyeefvmullin] at or above 300 nM?
condition not met

Is apparent KD of K4 kissing-loop reporter for AGGUUUUGCGGAGGAUAUGCACUGAGGAGGAGAAUAUAGUGAUGUUAUAUAAGAGGAAGGAGAAGAGUAGAAGGCCGUGAGGUUU [SSFMNB.N] at or above 300 nM?
condition not met

Is apparent KD of K4 kissing-loop reporter for GCCGUACGCAUGGAUACCAGCAAUCAAACGUCAUGCGAAGUGAUGUUUCGCUUACGGUAGUGCCCUUGGCAGCCAUGCGUACGGC at or above 300 nM?
condition not met

Is apparent KD of K4 kissing-loop reporter for AGGAGCGUGCGAUGAAAAUCGCACGCUCCUCGAGGACCGGUACGGCCGCCACUCGCUCGCGCCGAGUGAUGUUCGGCCGGCGAAC [#2 Same State - Tryptophan A Attempt #8 (HarryS)] at or above 300 nM?
condition met

Is apparent KD of K4 kissing-loop reporter for UGUCAUUGGUCUGAUACCAGUUGAUAAACUGGAGUGAUGUUCCAAGAACGAGAAACUCGCAACCCUUGGCAGCAGACCGAUGACU [TheoBS 17 #SwitchBubble 13 #StaticStem] at or above 300 nM?
condition not met

Is apparent KD of K4 kissing-loop reporter for GAUACGAAGCAGUGAUGUUGCUUAUGAGAAGGAGCGCACGAAAGUGCAGGUAGGUCGCUCAGCCAUGUGGACGAAAACGUCCACA [whbob_SS_Arginine_A_sa111] at or above 300 nM?
condition not met

Is apparent KD of K4 kissing-loop reporter for GUCCGGAAGGCGGCUUCACGACCGUGGUGGGAGGAUAUGUCUAAGGACAGAAGGCCCAGUGAUGUUGGGCUUUAGGAGAGCCAUA [Ragele] at or above 300 nM?
condition not met

Is apparent KD of K4 kissing-loop reporter for GCCUGAGCACGAAGGAGCGCCGUGACAGGUUACUGCCUUGGGCAGUGAUGUUGCUCAAUCUGGCAGGUAGGUCGCGUGCUCAGGC at or above 300 nM?
condition not met

Is apparent KD of K4 kissing-loop reporter for UGUACCGAGUCAGGAUAUAGCGUCGAAAGACGAAAUGGAGUGAUGUUCCUUAAACUGCGAAAGCAGCUAGAAGGGACUUGGUACU [FmnBS 28 #SwitchBubble #StaticStem #DoubleMagnetSystem] at or above 300 nM?
condition not met

Is apparent KD of K4 kissing-loop reporter for CGUUUAUAGCAGGAUACCAGUACCCAUUAUGUACGUUUAUAGUAGAGUGAUGUUCUAAAGUACCCUUGGCAGCUUCCCGUGACCC [ExTheophylB.Z] at or above 300 nM?
condition not met

Is apparent KD of K4 kissing-loop reporter for AAAACUAUCAGAAGGAGCGUGGAAUAUACAUCUAUAUUUAAUACGAGUGAUGUUCGUAAUUCACAGGUAGGUCGCUGAUCAAUAA [whbob_Ex_Arginine_B_2th153] at or above 300 nM?
condition not met

Is apparent KD of K4 kissing-loop reporter for UGACUGGACUGAAGGAGCGCUAAACUCCUAGUGAUGUUAGGAUAACGAGACAAAGUCUCGAGGCAGGUAGGUCGCAGUCUAGUCU at or above 300 nM?
condition not met
